Data origin: ChEMBL document CHEMBL1156454

System: Jurkat
Test description: Resistance index, ratio of IC50 for 2-amino-4-(4-heptyloxyphenyl)-2-methylbutanol-resistant human Jurkat SBR1 mutant cells to IC50 for human wild type Jurkat cells
Format: functional
# reported Ratio IC50; entries follow
Please give only the number in your answer, with no unit.

Look over these answered cases.
CCCCCCCCCCCCC/C=C/[C@@H](O)[C@@H](N)CO [SPHINGOSINE] : 1.7
CCCCCCCOc1ccc(CC[C@@](C)(N)CO)cc1 : 3.8
CCCCCCCCCCCCCC[C@@H](O)[C@@H](O)[C@@H](N)CO (single isomer, unassigned) [PHYTOSPHINGOSINE] : 1.8

Now examine the next entry.
Request: # get_value(readout='Ratio IC50', item= CCCCCCCCCCCCCCC[C@@H](O)[C@@H](N)CO [DIHYDROSPINGOSINE] )
Result: 1.4

###

Test system: Jurkat
Test description: Resistance index, ratio of IC50 for 2-amino-4-(4-heptyloxyphenyl)-2-methylbutanol-resistant human Jurkat SBR3 mutant cells to IC50 for human wild type Jurkat cells
Type: functional
Measure name: Ratio IC50
Lab note: record just the number, no unit beside it.

// solved cases for Ratio IC50 follow
CCCCCCCCCCCCC/C=C/[C@@H](O)[C@@H](N)CO [SPHINGOSINE] : 1.7
CCCCCCCCCCCCCC[C@@H](O)[C@@H](O)[C@@H](N)CO (single isomer, unassigned) [PHYTOSPHINGOSINE] : 1.1
CCCCCCCCCCCCCCC[C@@H](O)[C@@H](N)CO [DIHYDROSPINGOSINE] : 1.8

Proceed to the following item.
Request: I'd like to know its Ratio IC50. The compound in question is "CCCCCCCOc1ccc(CC[C@@](C)(N)CO)cc1"
Result: 3.1
